Source of measurements: PubChem BioAssay (NCI)

Test system: CAKI-1 renal
test.description: NCI-60 one-dose screen, 48 h (100 = growth as untreated, 0 = no growth, -100 = all killed)
cond: 10 µM unless noted
Compounds without any hit were thinned out: in the full panel of roughly 83,000, 20% have a hit. Active and inactive are the calls of the source. The calls were made as follows: active = growth percent below 10; inactive = the rest.
Listed compounds paired with reported growth

Before answering, review these 3 worked examples.
CC(C)(C)n1cc(-c2ccnc(NCCNS(=O)(=O)c3ccc(Cl)cc3)c2)c(-c2cccc(O)c2)n1 :: 71.8% (inactive)
O=C(/C=C\c1cccc([N+](=O)[O-])c1)/C=C/c1cccc([N+](=O)[O-])c1 :: 94.2% (inactive)
CCCN=C1NC(=O)/C(=C/c2nc(-c3ccc(OC)cc3)n3ccccc23)S1 :: 123% (inactive)

Moving on to another compound below.
get_value(item= CC(=O)Nc1scc[n+]1Cc1ccccc1 , readout=growth) returns 87.4% (inactive)

---

System: MOLT-4 leukemia
test.description: NCI-60 one-dose screen, 48 h
cond: 10 µM unless noted
The panel holds about 83,000 compounds, 20% with a hit somewhere; the sample as a whole holds those more often. The source made the active and inactive calls. Rule for the calls: active = growth percent below 10; inactive = the rest.
# valid calls are active, inactive; nothing else

Query: For O=C(NNC(=O)N1c2ccccc2C=Cc2ccccc21)c1ccccc1 , what call appears in the results of this test?
Response: inactive

---

Tested on: RPMI-8226 leukemia
test.description: NCI-60 one-dose screen, 48 h (100 = growth as untreated, 0 = no growth, -100 = all killed)
cond: 10 µM unless noted
About 83,000 compounds went through this panel and 20% of them were active in at least one assay; those are over-represented in the sample as a whole.
Listed molecules paired with reported growth
Write it as a number; the unit % goes unstated.

CCC(C)/C(=C\C#N)NCCCN/C(=C/C#N)C(C)CC (stereo not drawn) :: 88.7
CC(C)(C)N1CCC1C(N)=O (stereo not drawn) :: 87.5

Moving on to another molecule below.
The reported RPMI-8226 leukemia growth of CCOC(=O)c1cn2c3c(cccc3c1=O)C(=O)/C(=C/c1cccc(Cl)c1Cl)C2 is 92.4

---

Test system: MDA-MB-435 melanoma
test.description: NCI-60 one-dose screen, 48 h
cond: 10 µM unless noted
This is part of a sample that, as a whole, favours compounds with a hit. Of some 83,000 tested, about 20% had one in any assay. The source made the active and inactive calls. How the source made its calls: active means growth percent below 10; inactive means the rest.
# valid calls are active, inactive; nothing else

Examples from the recorded data:
COc1ccc2c(c1)[nH]c(=O)c1c3cc(OC)ccc3cn21 :: active
CN(C)CCN1C(=O)c2ccc3c4c(ccc(c24)C1=O)C(=O)N(CCN=C=S)C3=O :: active
C=C1C(=O)O[C@H]2[C@H]1CC/C(Cn1cc(CNC(=O)/C=C/c3c[nH]c4ccccc34)nn1)=C\CC[C@@]1(C)O[C@@H]21 :: inactive
CN(CCCCN(C[C@H]1Cc2ncccc2CN1)[C@H]1CCCc2cccnc21)C1CCC(F)(F)CC1 :: inactive
COc1ccc(S(=O)(=O)Nc2cc(/C=C\c3cc(OC)c(OC)c(OC)c3)cc(OC)c2OC)cc1 :: active

Query: For CC(=O)Nc1ccc(/C=C/C(=O)c2ccccc2)cc1 , what call appears in the results of this test?
Response: inactive

Query: For O=C(NNC(=O)N1c2ccccc2C=Cc2ccccc21)c1ccccc1 , what call appears in the results of this test?
Response: inactive

Query: For COc1cc(C2NN=C3c4ccccc4CCC32)cc(OC)c1OC (centres undefined) , what call appears in the results of this test?
Response: inactive
